system: M14; assay: NCI tumour cell line growth inhibition, 48 h
Calls of active or inactive are those of the source. Rule as the data show it: active = GI50 up to about 1.1 µM and inactive = higher.
# key: entry, value: GI50
Parameter measured: GI50

- O=C1CCCC/C1=C(\Br)I: 6.78 µM (inactive)
- COc1ccc(N2C(=O)C3c4[nH]c5cccc(Cl)c5c4C4CCC(C(C)(C)C)CC4C3C2=O)cc1 (stereo unspecified): > 100 µM (inactive)
- Nc1ccc(C(=O)N2CCC[C@H]2CO)c(N)c1: > 100 µM (inactive)
- CCOC(=O)C1(C/C=C(/C)Cl)CCCC1=O (stereo unspecified): > 100 µM (inactive)
- N=C/N=C/C(=S)O[C@@H]1C(=O)N2CCC[C@@]23CCCC[C@@H]13: > 12.5 µM (inactive)
- CCOc1cc(C2SCC(=O)N2c2ccc(Oc3ccc(Cl)cc3)c(Cl)c2)ccc1O (stereo unspecified): 23.5 µM (inactive)
- Cc1nc2c(n1CCO)C(=O)c1ccccc1C2=O: 21.4 µM (inactive)
- COC(=O)c1cccc(C)c1C1CN=NC12Cc1c(ccc(C)c1C)C2=O (stereo unspecified): 45.3 µM (inactive)
- COc1ccc(/C(Cl)=C(\C=O)c2ccc(F)cc2)cc1OC: 17.6 µM (inactive)
- CC1=CC(=O)N(n2c(-c3ccccc3)n[nH]c2=O)C1=O: > 100 µM (inactive)
- Cc1cccc(C)c1NC(=O)/C(=N/NC(N)=S)C(C)C(=O)c1ccc(Cl)cc1 (stereo unspecified): > 100 µM (inactive)
